- System: Wolbachia pipientis
- EXPERIMENTAL_PROTOCOL: Anti-Wolbachia Cell-Based Screen
- Format: functional
- Design: scale not given: in the data most compounds retested in dose-response had high values
- TEST_PARAMETERS: 5 µM
The whole screen tested about 48,000 compounds, of which about 13,000 (27%) showed an effect of 50% or more. The list shows a part of the results.
QUANTITY_NAME: Percent Effect

| MOLECULE | SUBJECT_OF_TEST | DATA_VALUE |
| --- | --- | --- |
| CN(Cc1ccsc1)C(=O)c1cccc(NS(C)(=O)=O)c1 | Wolbachia pipientis | 8.391% |
| CC(NC(=O)Cn1ccc(=O)n(C)c1=O)c1ccccc1F (configuration not stated) | Wolbachia pipientis | 122% |
| CN(Cc1ccsc1)C(=O)Nc1ccc(S(=O)(=O)N(C)C)cc1 | Wolbachia pipientis | 5.237% |
| Cc1noc(-c2cccnc2N2CCOC(C)(c3cnn(C)c3)C2)n1 (configuration not stated) | Wolbachia pipientis | -3.53% |
| CN(Cc1ccsc1)C(=O)c1ccc(C2CCCO2)s1 (configuration not stated) | Wolbachia pipientis | -3.526% |
| COc1ccccc1N1CCN(C(=O)CSCC2CC2)C(C)C1 (configuration not stated) | Wolbachia pipientis | 12.11% |
| CC(NC(=O)Cn1ccc(=O)n(C)c1=O)c1cc(F)ccc1F (configuration not stated) | Wolbachia pipientis | 123.1% |
| CNC(=O)c1cccc(CNC(C)c2cc(Cl)ccc2OC)c1 (configuration not stated) | Wolbachia pipientis | 8.961% |
| CC(NCCn1cccn1)c1ccccc1F (configuration not stated) | Wolbachia pipientis | 17.82% |
| Cc1ccc(F)c(N2CCCC(NS(=O)(=O)CCCF)C2=O)c1 (configuration not stated) | Wolbachia pipientis | -1.757% |
| CCCS(=O)(=O)N1CCOC2(COCCN(C(C)=O)C2)C1 (configuration not stated) | Wolbachia pipientis | -8.657% |
| Cn1c(=O)ccn(CC(=O)Nc2cnccc2O)c1=O | Wolbachia pipientis | -3.574% |

* * *

- Tested on: Wolbachia pipientis
- EXPERIMENTAL_PROTOCOL: Anti-Wolbachia Cell-Based Screen
- Format: functional
- Set-up: scale not given: in the data most compounds retested in dose-response had high values
- TEST_PARAMETERS: 5 µM
Hit rate of the full screen: of about 48,000 compounds, about 13,000 (27%) showed an effect of 50% or more. The list shows a part of the results.

| MOLECULE | SUBJECT_OF_TEST | Percent Effect |
| --- | --- | --- |
| Cc1nc(O)cc(CCNC(=O)CC[C@@H]2CCCN3CCCC[C@H]23)n1 | Wolbachia pipientis | -10.54% |
| Cc1ccc(CN2CCc3c(COCC4CC4)nn(C)c3C2)s1.O=C(O)C(F)(F)F | Wolbachia pipientis | 115.6% |
| COc1ccc(CN(C)[C@@H]2CN(C(=O)c3cnn(C)c3)C[C@H]2O)cc1 | Wolbachia pipientis | 88.16% |
| CCC(=O)c1ccc(OCC(=O)NC(C)c2nnc(C)[nH]2)cc1 (centres undefined) | Wolbachia pipientis | 8.329% |
| COCc1nn(C(C)C)c2c1CCN(Cc1ccc(C)s1)C2.O=C(O)C(F)(F)F | Wolbachia pipientis | 2.652% |
| Cc1ccc(-c2nc(CCNC(=O)NC3CCN(C)CC3)co2)cc1 | Wolbachia pipientis | -5.87% |
| CCn1nc(C)cc1C(=O)N1CC[C@H](OC)[C@H]2CN(CC3CC3)C[C@H]21.O=C(O)C(F)(F)F | Wolbachia pipientis | 3.94% |
| CNC(=O)CCc1cc(C2CCCN2S(C)(=O)=O)nc(C)n1 (centres undefined) | Wolbachia pipientis | 95.26% |
| COCCN(Cc1ccc(OC)nc1)Cc1cccs1 | Wolbachia pipientis | 6.12% |
| COc1ncccc1C1CC(=O)NCc2nc3ccccn3c21 (centres undefined) | Wolbachia pipientis | -11.47% |
| Cn1cc(C2CCCN2C(=O)c2cn(-c3ccccc3)nn2)cn1 (centres undefined) | Wolbachia pipientis | 82.94% |
| Cc1ccc(C(=O)N2C[C@@H](NS(C)(=O)=O)[C@H](C(C)C)C2)cc1O | Wolbachia pipientis | 5.531% |
| Cc1cc(C)n(CC2CCCCN2CC(=O)Nc2c(C)n[nH]c2C)n1 (centres undefined) | Wolbachia pipientis | 1.6% |
| CCOc1ccc(CC(=O)N2CCCC2c2cc(C)on2)cc1 (centres undefined) | Wolbachia pipientis | 5.942% |
| Cc1cc(C2CCCN2C(=O)c2ccc(OCC(N)=O)cc2)no1 (centres undefined) | Wolbachia pipientis | 5.942% |
| COCCC1(C(=O)O)CCCN(c2cc(C)c3ccccc3n2)C1 (centres undefined) | Wolbachia pipientis | -9.375% |
| O=C(CCCc1ccc(F)cc1)N1C[C@@H](CN2CCOCC2)[C@@H](CO)C1 | Wolbachia pipientis | -13.37% |
| Cc1nnc([C@@H]2C[C@H]3CN(C(=O)c4c(C)noc4C)C[C@H]3O2)[nH]1.O=C(O)C(F)(F)F | Wolbachia pipientis | -14.34% |
| Cn1cc(C(=O)N2CCCCC2CCc2ccccc2)cn1 (centres undefined) | Wolbachia pipientis | -0.576% |
| COc1ccc(CN(C)[C@@H]2CN(C(=O)c3cccs3)C[C@H]2O)cc1 | Wolbachia pipientis | -2.392% |
| COc1ccc([C@@H]2CN(C(=O)CCCc3cn[nH]c3)C[C@H]2N(C)C)cc1 | Wolbachia pipientis | -10.76% |
| CNC(=O)CCc1cc(C2CCCN2C(=O)CO)nc(C)n1 (centres undefined) | Wolbachia pipientis | 135.9% |
| CCN1C[C@@H]2[C@@H](OC)CCN(C(=O)c3cc(C)nn3CC)[C@@H]2C1.O=C(O)C(F)(F)F | Wolbachia pipientis | -7.784% |
| Cn1nc(COCC2CC2)c2c1CN(CC1CC1)CC2.O=C(O)C(F)(F)F.O=C(O)C(F)(F)F | Wolbachia pipientis | 100.4% |
| Cc1c(C(=O)N2CCCC2c2cnn(C)c2)cnn1-c1ccccc1 (centres undefined) | Wolbachia pipientis | 112.8% |
| Cc1csc([C@@H]2C[C@@H]3CCN(C(=O)c4ccnnc4)C[C@H]3O2)n1 | Wolbachia pipientis | -12.9% |
| O=c1c2cccnc2cnn1CC(O)c1cccc(Cl)c1 (centres undefined) | Wolbachia pipientis | -24.01% |
| Cc1cc(N2CCC3(CCCN(CCO)C3=O)C2)nc2cc(Cl)ccc12 (centres undefined) | Wolbachia pipientis | 98.58% |
| CC(C)N1CCN(C)CC1c1nnc2ccc(C(=O)N3CCCC3)cn12 (centres undefined) | Wolbachia pipientis | -1.369% |
| NC(=O)CN1CCN(S(=O)(=O)N2CCCC2c2ccco2)CC1 (centres undefined) | Wolbachia pipientis | -1.711% |
| Cc1ncc(CN(C)C(=O)Nc2cccc(N3CCOC3=O)c2)s1 | Wolbachia pipientis | -2.518% |
| Cc1cc(N2CCC3(CCCN(CCO)C3=O)C2)nc2ccccc12 (centres undefined) | Wolbachia pipientis | 93.99% |
| Cc1nc(CCC(N)=O)cc(C2CCCCN2S(C)(=O)=O)n1 (centres undefined) | Wolbachia pipientis | 110.4% |
| Cc1cc(N2CCC(CO)(CC3CCCCO3)CC2)nc2ccccc12 (centres undefined) | Wolbachia pipientis | -15.69% |
| Cc1nn(-c2ccccc2)nc1C(=O)N1CCCC1c1cnn(C)c1 (centres undefined) | Wolbachia pipientis | 5.794% |
| Cc1noc(C)c1CN(C)C(=O)C1CCCCN1S(C)(=O)=O (centres undefined) | Wolbachia pipientis | -0.5133% |
| O=C1OCCN1Cc1cccc(C(F)(F)F)c1F | Wolbachia pipientis | -20.92% |
| Cc1ccc2oc(=O)n(CCC(=O)N3CCCC4(CNC(=O)O4)C3)c2c1 (centres undefined) | Wolbachia pipientis | -2.854% |
| Cc1nn(-c2ccccc2)cc1C(=O)N1CCCC1c1cnn(C)c1 (centres undefined) | Wolbachia pipientis | 105.2% |
| CC(C)OCc1nn(C)c2c1CCN(CC1CC1)C2.O=C(O)C(F)(F)F | Wolbachia pipientis | 103.7% |
| CCC(C)(C)C(=O)N1C[C@@H]2C[C@@H](c3nnc(C)[nH]3)O[C@@H]2C1 | Wolbachia pipientis | 92.76% |
| CCCN(Cc1ccc(C#N)cc1)Cc1nnsc1Cl | Wolbachia pipientis | 8.987% |
| COCCN1CCCC2(CCN(c3ncc(Cl)cc3Cl)C2)C1=O (centres undefined) | Wolbachia pipientis | 5.155% |
| Cc1ccc(-c2nc(CCNCc3ccncc3)co2)cc1 | Wolbachia pipientis | 83.41% |

* * *

- System: Wolbachia pipientis
- EXPERIMENTAL_PROTOCOL: Anti-Wolbachia Cell-Based Screen
- Type: functional
- Design: scale not given: in the data most compounds retested in dose-response had high values
- TEST_PARAMETERS: 5 µM
Screen size: about 48,000 compounds; about 13,000 (27%) showed an effect of 50% or more. The list shows a part of the results.

| COMPOUND | Percent Effect |
| --- | --- |
| CCCN1CCCC2(CCN(S(=O)(=O)c3cc(C)nn3CC)C2)C1=O (stereo unspecified) | -15.13% |
| c1cncc(N2CCOC3(CCCN(c4nncs4)C3)C2)c1 (stereo unspecified) | -20.57% |
| CC(C)CC(C)N(C)Cc1nnc(-c2ccco2)o1 (stereo unspecified) | 9.065% |
| CSCC(=O)N1C[C@H]2CC[C@@H]1CN(C1Cc3ccccc3C1)C2 | 0.6506% |
| CCn1nc(C)cc1S(=O)(=O)N1CCC2(CC(=O)NC2=O)C1 (stereo unspecified) | -2.488% |
| CC(C)N(C)C(=O)c1coc(CN2CCN(c3ccccc3F)CC2)n1 | -13.9% |
| CN(Cc1nnc(C2CC2)n1C)C1CCN(CCc2cccs2)C1 (stereo unspecified) | 1.002% |
| CN(Cc1nnc(C2CC2)n1C)C1CCN(CCc2ccncc2)C1 (stereo unspecified) | -12.03% |
| CN(Cc1nnc(C2CC2)n1C)C1CCN(Cc2ccc(F)cc2)C1 (stereo unspecified) | 5.91% |
| CC(C)n1cc(S(=O)(=O)N2CCCCC2)cn1 | 6.255% |
| Cc1ccc2cc(CN(C)Cc3nccs3)c(=O)[nH]c2c1 | -5.099% |
